Origin of the recorded values: PubChem BioAssay AID1845215

- Test system: SW 1271 complex tumor spheroid viability
- Experiment notes: Anticancer human tumor SW 1271 cell line growth inhibition;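 note: spheroids exposed to agents for seven days before readout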
- Measurement conditions: curve of first compound; second compound 3.16 µM
pIC50: −log10 of the molar value.
Property name: pIC50

pIC50 for SW 1271 complex tumor spheroid viability with input Cc1cc(C)c(CNC(=O)c2cc(-c3ccc(CN4CCOCC4)cc3)cc3c2cnn3C2CCCC2)c(=O)[nH]1 + Cn1nnc2c(C(N)=O)ncn2c1=O equals < 5.00

Kindly note: SW 1271 complex tumor spheroid viability, COc1cc(C)[nH]c(=O)c1CN1CCc2c(Cl)cc(C(OC)C3COC3)c(Cl)c2C1=O (stereo not drawn) + Cn1nnc2c(C(N)=O)ncn2c1=O , pIC50 value reported: < 5.00

For the compound [2H]c1nc(C)nc([2H])c1-c1cc(NC[C@@H](C)c2cccc3c(C(=O)NC)ccnc23)ncn1 + Cn1nnc2c(C(N)=O)ncn2c1=O , the measured pIC50 on SW 1271 complex tumor spheroid viability was < 5.00
